test system: MOLT-4; experiment: NCI tumour cell line growth inhibition, 48 h
Calls of active or inactive are those of the source. No stated cut-off is given here; in the data, active = GI50 up to about 1.1 µM and inactive = higher.
Response enum: YES = active, NO = inactive

Observe how each entry below is paired with its result.
O=C(/C=C/c1ccc(-c2ccccc2)cc1)NCc1ccc(C(=O)NCCc2c[nH]c3ccccc23)cc1 :: NO
CC(C)(C)OC(=O)C1=C(O)C(C(=O)OC(C)(C)C)C23CCCCC12C(C(=O)OC(C)(C)C)C(O)=C3C(=O)OC(C)(C)C (configuration not stated) :: NO
OC(c1ccc(F)cc1)C(F)(F)c1nc2ccccc2o1 (configuration not stated) :: NO
Cc1cc(N)c2cc(NC(=O)Nc3ccc4nc(C)cc(N)c4c3)ccc2n1 :: NO
COc1ccc(-n2c3c(c4cc(O)ccc42)C(=O)c2ccccc2C3=O)cc1 :: NO
COC(=O)c1ccccc1CC1Cc2cc3c(cc2C1)CCC3 :: NO

# ---- query molecule ----
Data request: Status in this test for CC[C@@]1(O)C(=O)OCc2c1cc1n(c2=O)Cc2c-1nc1ccccc1c2/C=N\NC(=O)C(N)CC(C)C (some centres not stated) ?
Data returned: YES
